Overview of reported pIC50 across a group of compounds:
experimental-target: human FGFR1 (Homo sapiens, UniProt P11362)
Sequence (P11362 22-822): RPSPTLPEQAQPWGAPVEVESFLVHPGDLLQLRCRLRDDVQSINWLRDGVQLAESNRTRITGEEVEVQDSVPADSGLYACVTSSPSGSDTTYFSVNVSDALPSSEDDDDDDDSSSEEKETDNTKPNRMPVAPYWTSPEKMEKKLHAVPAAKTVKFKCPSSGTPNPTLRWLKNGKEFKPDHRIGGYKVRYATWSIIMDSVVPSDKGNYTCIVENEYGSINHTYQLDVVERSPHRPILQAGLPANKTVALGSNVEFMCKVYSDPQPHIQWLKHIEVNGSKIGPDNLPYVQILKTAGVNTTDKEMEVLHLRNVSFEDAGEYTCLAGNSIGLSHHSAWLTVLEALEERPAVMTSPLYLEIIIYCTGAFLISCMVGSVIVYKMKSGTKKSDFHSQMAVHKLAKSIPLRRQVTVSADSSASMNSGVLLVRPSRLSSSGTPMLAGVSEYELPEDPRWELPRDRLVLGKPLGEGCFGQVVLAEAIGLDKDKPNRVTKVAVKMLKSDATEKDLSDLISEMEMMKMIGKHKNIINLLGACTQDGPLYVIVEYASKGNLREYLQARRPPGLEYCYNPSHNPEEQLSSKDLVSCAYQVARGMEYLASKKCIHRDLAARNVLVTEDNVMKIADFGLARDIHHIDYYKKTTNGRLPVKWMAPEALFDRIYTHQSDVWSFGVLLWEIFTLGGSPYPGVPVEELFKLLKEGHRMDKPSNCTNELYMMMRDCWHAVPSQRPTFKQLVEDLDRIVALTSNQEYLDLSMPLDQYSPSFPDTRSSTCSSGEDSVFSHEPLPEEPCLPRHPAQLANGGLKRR
test-method-notes: 33P isotope-labeled kinase activity test, wild-type FGFR1
test-context: IC50 FGFR1, wild-type kinase, 33P-ATP 5 μM, 120 minutes
pIC50: −log10 of the molar value.

compound	experimental-target	measurement-qualifier	pIC50
C=CC(=O)N1CC[C@H](c2cc(-c3cc4c(F)c(OC)cc(OC)c4s3)c3c(N)ncnn23)C1	human FGFR1 (Homo sapiens, UniProt P11362)	=	9.70
COc1cc(C)cc2cc(-c3cc(C4CCN(C(=O)CC#N)C4)n4ncnc(N)c34)sc12 (single isomer, unassigned) [Example 16]	human FGFR1 (Homo sapiens, UniProt P11362)	=	9.10
C=CC(=O)N1CC[C@@H](c2cc(-c3cc4c(F)c(OC)cc(OC)c4s3)c3c(N)ncnn23)C1	human FGFR1 (Homo sapiens, UniProt P11362)	=	8.82
C=CC(=O)N1CCC(c2cc(-c3sc4c(OC)cc(C)cc4c3C)c3c(N)ncnn23)C1 (single isomer, unassigned) [Example 8]	human FGFR1 (Homo sapiens, UniProt P11362)	=	10.00
COc1cc(C)cc2cc(-c3cc([C@H]4CCN(C(=O)/C=C/CN5CCOCC5)C4)n4ncnc(N)c34)sc12	human FGFR1 (Homo sapiens, UniProt P11362)	=	8.33
C=CC(=O)N1CC[C@H](c2cc(-c3nc4cc(OC)cc(OC)c4s3)c3c(N)ncnn23)C1	human FGFR1 (Homo sapiens, UniProt P11362)	<	5.00
C=CC(=O)N1CC[C@@H](c2cc(-c3cc4cc(Cl)cc(OC)c4s3)c3c(N)ncnn23)C1	human FGFR1 (Homo sapiens, UniProt P11362)	=	9.22
